Listed below: log10 IC50 values for each entry.
Assay target: human Nav1.7 (Homo sapiens, UniProt Q15858)
Sequence (Q15858 1-1977 isoform Q15858-3): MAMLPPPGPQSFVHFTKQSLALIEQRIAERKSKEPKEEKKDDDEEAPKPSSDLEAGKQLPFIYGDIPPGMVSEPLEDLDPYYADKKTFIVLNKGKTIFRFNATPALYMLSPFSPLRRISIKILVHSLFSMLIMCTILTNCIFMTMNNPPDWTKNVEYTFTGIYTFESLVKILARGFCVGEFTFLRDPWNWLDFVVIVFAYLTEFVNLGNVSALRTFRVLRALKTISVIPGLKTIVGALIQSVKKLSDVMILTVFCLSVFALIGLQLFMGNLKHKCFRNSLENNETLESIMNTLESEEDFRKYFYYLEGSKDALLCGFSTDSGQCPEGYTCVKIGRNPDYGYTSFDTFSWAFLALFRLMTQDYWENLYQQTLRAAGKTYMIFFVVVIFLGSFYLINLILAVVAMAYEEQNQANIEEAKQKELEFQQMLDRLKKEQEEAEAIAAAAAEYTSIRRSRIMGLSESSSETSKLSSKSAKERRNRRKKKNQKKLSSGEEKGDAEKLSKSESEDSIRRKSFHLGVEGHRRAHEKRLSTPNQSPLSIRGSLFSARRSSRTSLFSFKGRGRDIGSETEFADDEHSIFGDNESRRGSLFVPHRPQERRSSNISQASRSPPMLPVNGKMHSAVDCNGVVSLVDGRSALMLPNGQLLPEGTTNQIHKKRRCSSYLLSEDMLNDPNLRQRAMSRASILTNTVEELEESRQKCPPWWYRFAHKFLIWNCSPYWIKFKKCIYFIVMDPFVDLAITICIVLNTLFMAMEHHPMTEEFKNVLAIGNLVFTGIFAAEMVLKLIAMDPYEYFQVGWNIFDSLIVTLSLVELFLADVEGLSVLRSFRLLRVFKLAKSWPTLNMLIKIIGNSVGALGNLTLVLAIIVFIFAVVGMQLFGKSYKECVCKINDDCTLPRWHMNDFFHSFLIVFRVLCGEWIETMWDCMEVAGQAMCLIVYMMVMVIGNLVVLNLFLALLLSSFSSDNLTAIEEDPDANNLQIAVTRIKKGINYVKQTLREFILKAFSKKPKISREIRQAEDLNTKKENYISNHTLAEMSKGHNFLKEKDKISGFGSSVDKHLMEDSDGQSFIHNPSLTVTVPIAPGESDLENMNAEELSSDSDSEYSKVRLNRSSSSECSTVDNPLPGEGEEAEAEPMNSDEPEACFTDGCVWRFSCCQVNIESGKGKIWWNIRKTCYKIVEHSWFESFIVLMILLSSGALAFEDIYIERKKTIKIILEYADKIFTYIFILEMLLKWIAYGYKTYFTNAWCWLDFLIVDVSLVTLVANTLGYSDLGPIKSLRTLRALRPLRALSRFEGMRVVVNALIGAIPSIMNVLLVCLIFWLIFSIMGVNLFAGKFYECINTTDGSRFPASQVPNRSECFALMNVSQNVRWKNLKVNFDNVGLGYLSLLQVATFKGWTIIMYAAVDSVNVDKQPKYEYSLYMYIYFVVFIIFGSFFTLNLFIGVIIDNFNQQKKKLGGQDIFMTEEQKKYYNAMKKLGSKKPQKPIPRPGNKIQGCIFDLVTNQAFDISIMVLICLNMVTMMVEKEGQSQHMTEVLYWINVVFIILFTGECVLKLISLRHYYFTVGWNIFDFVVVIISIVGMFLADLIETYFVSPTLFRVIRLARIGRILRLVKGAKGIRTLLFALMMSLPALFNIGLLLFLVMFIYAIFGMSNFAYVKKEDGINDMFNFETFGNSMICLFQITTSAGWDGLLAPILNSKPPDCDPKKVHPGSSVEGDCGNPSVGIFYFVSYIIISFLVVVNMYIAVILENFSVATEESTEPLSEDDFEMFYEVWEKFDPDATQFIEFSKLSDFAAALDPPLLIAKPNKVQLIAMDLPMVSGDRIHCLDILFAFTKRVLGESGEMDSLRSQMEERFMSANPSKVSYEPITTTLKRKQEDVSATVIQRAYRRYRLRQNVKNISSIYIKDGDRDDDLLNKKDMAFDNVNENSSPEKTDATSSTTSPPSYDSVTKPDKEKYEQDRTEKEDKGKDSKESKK
Method: FLIPR sodium dye assay (CoroNa Green AM Na+ dye, primary fluorescence assay) in recombinant Nav1.7/HEK293 cells
Format: cell-based
Setup conditions: Table 6; CoroNa Green AM Na+ dye primary fluorescence assay; read-out: Nav1.7 Activity (μM) FLIPR assay IC50
Assay readout: log10 IC50 (log10 of the value in µM)

{"Compound": "C[C@H](Nc1cc(C(N)=O)nc(N2C3CCC2CC(Oc2ccc(C(F)(F)F)cc2-c2ccncc2)C3)n1)C(N)=O (stereo partly shown)", "log10 IC50": 0.61}
{"Compound": "NC(=O)c1cc(N[C@H]2CCNC2=O)nc(C2CCC(Oc3ccc(C(F)(F)F)cn3)CC2)n1 (stereo partly shown)", "log10 IC50": -0.03}
{"Compound": "COc1cnc(Oc2ccc(-c3nc(N[C@H]4CCNC4=O)cc(C(N)=O)n3)cc2)cn1", "log10 IC50": 0.71}
{"Compound": "NC(=O)c1cc(N[C@H]2CCNC2=O)nc(-c2ccc(Oc3ccc(OC(F)(F)F)cc3)cc2)n1", "log10 IC50": -0.74}
{"Compound": "NC(=O)c1cc(N[C@H]2CCNC2=O)nc(N2[C@@H]3CC[C@H]2C[C@H](Oc2ccc(F)cc2Cl)C3)n1", "log10 IC50": -0.46}

====

Assay target: UniProtKB Q15858
Method: FLIPR sodium dye assay (CoroNa Green AM Na+ dye, primary fluorescence assay) in recombinant Nav1.7/HEK293 cells
Format: cell-based
Setup conditions: Table 6; CoroNa Green AM Na+ dye primary fluorescence assay; read-out: Nav1.7 Activity (μM) FLIPR assay IC50
Form field: IC50 (one value per entry).

{"Molecule": "CN1CCN(c2cc(C(F)(F)F)ccc2Oc2ccc(-c3nc(N[C@H]4CCNC4=O)cc(C(N)=O)n3)cc2)CC1", "Assay target": "UniProtKB Q15858", "Sign qualifier": "=", "IC50 [µM]": 4.16}
{"Molecule": "NC(=O)c1cc(NCc2ncc[nH]2)nc(-c2ccc(Oc3ccc(F)cc3)cc2)n1", "Assay target": "UniProtKB Q15858", "Sign qualifier": ">", "IC50 [µM]": 20}
{"Molecule": "NC(=O)c1cc(N[C@H]2CCNC2=O)nc(-c2ccc(Oc3ccc(C(F)(F)F)cc3CN3CCCCC3)cc2)n1", "Assay target": "UniProtKB Q15858", "Sign qualifier": "=", "IC50 [µM]": 2.18}
{"Molecule": "C[C@H](Oc1cc(C(N)=O)nc(-c2ccc(Oc3ccc(C(F)(F)F)cn3)cc2)n1)C(N)=O", "Assay target": "UniProtKB Q15858", "Sign qualifier": "=", "IC50 [µM]": 0.52}
{"Molecule": "NC(=O)c1cc(N[C@H]2CCNC2=O)nc(-c2ccc(Oc3cnc(C4CC4)cn3)cc2)n1", "Assay target": "UniProtKB Q15858", "Sign qualifier": "=", "IC50 [µM]": 1.19}
{"Molecule": "NC(=O)c1cc(N[C@H]2CCNC2=O)nc(-c2ccc(CC3CCC(C(F)(F)F)CN3)cc2)n1 (stereo partly shown)", "Assay target": "UniProtKB Q15858", "Sign qualifier": "=", "IC50 [µM]": 8.69}
{"Molecule": "NC(=O)c1cc(N[C@H]2CCNC2=O)nc(-c2ccc(Oc3ccc(F)cc3)cc2CN2CCOCC2)n1", "Assay target": "UniProtKB Q15858", "Sign qualifier": "=", "IC50 [µM]": 5.67}
